RUN DESCRIPTION: Binding affinity to Salmonella Typhimurium ATCC 14028 O-acetylserine sulfhydrylase B assessed as dissociation constant
Design: species or system Salmonella enterica subsp. enterica serovar Typhimurium
MEASUREMENT TYPE: pKd
One number for each entry, as −log10 of the molar value.

Cc1ccc(C[C@@]2(C(=O)O)C[C@H]2c2ccccc2)cc1    6.31

INPUT: Reported pKd for `Cc1ccc(C[C@@]2(C(=O)O)C[C@H]2c2cccc(-c3cc(O)cc(F)c3)c2)cc1` : what is it?
OUTPUT: 6.21

----------
Please provide measured pIC50 for the entries that follow.
RUN DESCRIPTION: Inhibition of Salmonella enterica Serine acetyltransferase by spectrophotometric analysis
Give bare numbers, as −log10 of the molar value.

Cc1ccc(Nc2nc(-c3cc(C(=O)O)no3)cs2)cc1    3.96

Let's switch to this compound now.
INPUT: Please look up its pIC50: `Cc1cc(C)cc(Nc2nc(-c3cc(C(=O)O)no3)co2)c1`
OUTPUT: 5.37
